# Read-out: Monokine induced gamma interferon (MIG), CXCL9 (gene 4283)
# MEASUREMENT_NOTES: BSK_BE3C_MIG: BioMAP Diversity Plus: BE3C Assay for Monokine induced gamma interferon (MIG) Biomarker Activity (AID 2283035)
# SETTINGS: primary human bronchial epithelial cells; actives raise or lower the signal
Activity calls are given as the source filed them. How the source made its calls: active means hit-call score of the fitted dose curve at least 0.9, where 1 is the maximum; inactive means score below 0.9.
I would appreciate it if you answered using one of these outcomes: active, inactive

Example entries and their recorded answers appear below.
> print(dat)
                                   molecule  class.label
1      COP(=S)(OC)Oc1ccc(S(=O)(=O)N(C)C)cc1     inactive
2  ClC1(Cl)C2(Cl)C3(Cl)C4(Cl)C(Cl)(Cl)C5(Cl)C3(Cl)C1(Cl)C5(Cl)C24Cl (configuration not stated)     inactive
3                            Cn1sc(Cl)cc1=O     inactive
4  O=C(Nc1ccc2[nH]ccc2c1)c1cc2cc(F)ccc2n1Cc1cccc(F)c1       active
5               CCOP(=S)(OCC)SCCS(=O)(=O)CC     inactive

Any idea what this test logged for `O=C(O)CCC(F)(C(F)(F)F)C(F)(F)F` ?
inactive

Hi team, can someone confirm the assay call for `COP(=S)(OC)Oc1c(Cl)cc(C)cc1Cl` ?
inactive

Tell me the assay call for `Nc1ccc(-c2ccc(N)c(Cl)c2)cc1Cl` please.
inactive
